Each entry below carries its recorded pIC50.
Target: active p38 alpha enzyme (Upstate Biotechnology) (Homo sapiens)
Construct: purchased Upstate Biotechnology
Assay: p38α biochemical assay (ATP turnover, luminescent detection, Cambrex PKlight)
Conditions: p38α biochemical assay, Table 1 Biological Activity
Protocol: The p38α biochemical assay employed is based on measurement of total ATP turnover following enzyme incubation with substrate in the presence of ATP with the use of a luminescent detection reagent (Cambrex PKlight). […] The final volume was 7.5005 μL as prepared prepared from the addition of 5 ul of kinase reaction (p38 alpah+MapkapK2+ATP) with 0.0005 μL compound dissolved in DMSO, and 2.5 ul of the detection reagent. […] Assay is read using a Perkin Elmer Viewlux.
pIC50: −log10 of the molar value.
METRIC NAME: pIC50

> print(dat)
                                   molecule  endpoint.value
1  CCC(C)C(NC(=O)OC(C)(C)C)C(=O)N1CCN(Cc2nc(-c3ccc(F)cc3)c(-c3nc(C(=O)NC(C)C)cs3)o2)CC1 (stereo not shown)          < 6.00
2  CC(C)NC(=O)c1csc(-c2c(-c3ccc(F)cc3)noc2CNC(=O)/C=C/c2ccc3c(c2)OCO3)n1          < 6.00
3  COc1cc(Cl)ccc1C(=O)NCc1onc(-c2ccc(F)cc2)c1-c1nc(C(=O)NC(C)C)cs1          < 6.00
4  CC(C)NC(=O)c1csc(-c2oc(CN3CCN(C(=O)/C=C/c4ccccc4C(F)(F)F)CC3)nc2-c2ccc(F)cc2)n1          < 6.00
5  CC(C)NC(=O)c1csc(-c2oc(CNC(=O)c3ccc(O)cc3O)nc2-c2ccc(F)cc2)n1          ≥ 6.00
6  Cc1cccc(CCC(=O)NCc2onc(-c3ccc(F)cc3)c2-c2nc(C(=O)NC(C)C)cs2)c1          < 6.00
7  COc1ccc(C(=O)N2CCN(Cc3nc(-c4ccc(F)cc4)c(-c4nc(C(=O)NC(C)C)cs4)o3)CC2)c(O)c1          ≥ 6.00

* * *

Item-by-item account of IC50
Target: active p38 alpha enzyme (Upstate Biotechnology) (Homo sapiens, UniProt Q16539)
Construct: purchased Upstate Biotechnology
Sequence (Q16539 whole entry): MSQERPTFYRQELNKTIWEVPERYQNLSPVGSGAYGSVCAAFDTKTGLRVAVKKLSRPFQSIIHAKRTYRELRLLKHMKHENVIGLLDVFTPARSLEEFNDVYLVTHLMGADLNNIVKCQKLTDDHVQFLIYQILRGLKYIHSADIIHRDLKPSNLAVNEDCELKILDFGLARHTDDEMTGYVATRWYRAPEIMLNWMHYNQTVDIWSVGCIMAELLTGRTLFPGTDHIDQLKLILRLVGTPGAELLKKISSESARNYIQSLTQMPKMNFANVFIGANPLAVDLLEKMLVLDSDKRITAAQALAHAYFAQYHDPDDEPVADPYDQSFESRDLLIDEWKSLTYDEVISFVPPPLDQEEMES
Assay: p38α biochemical assay (ATP turnover, luminescent detection, Cambrex PKlight)
Details: p38α biochemical assay, Table 1 Biological Activity
METRIC NAME: IC50

> print(dat)
                                   compound  endpoint.value
1  CC1=NN(c2ccc(C(=O)N3CCN(Cc4nc(-c5ccc(F)cc5)c(-c5nc(C(=O)NC(C)C)cs5)o4)CC3)cc2)C(=O)C1       > 1000 nM
2  CC(C)NC(=O)c1csc(-c2oc(CN3CCN(C(=O)c4ccc5c(c4)OCO5)CC3)nc2-c2ccc(F)cc2)n1       > 1000 nM
3  CC(C)NC(=O)c1csc(-c2oc(CN3CCN(C(=O)c4ccnc(Cl)c4)CC3)nc2-c2ccc(F)cc2)n1       > 1000 nM
4  CC(C)NC(=O)c1csc(-c2oc(CN3CCN(C(=O)c4cc5cc(Cl)ccc5o4)CC3)nc2-c2ccc(F)cc2)n1       > 1000 nM
5  CC(C)NC(=O)c1csc(-c2c(-c3ccc(F)cc3)noc2CNC(=O)c2cccc(F)c2)n1       > 1000 nM
6  CC(C)NC(=O)c1csc(-c2oc(CN3CCN(C(=O)C4CCCN4C(=O)OC(C)(C)C)CC3)nc2-c2ccc(F)cc2)n1 (stereo not shown)       ≤ 1000 nM
7  CC(C)NC(=O)c1csc(-c2oc(CNC(=O)c3ccncc3Cl)nc2-c2ccc(F)cc2)n1       ≤ 1000 nM
